Test system: Salmonella typhimurium
Experiment: Antibacterial activity against Salmonella typhimurium DT104 ATCC 700408 incubated overnight by standard microtiter dilution method
Format: functional, Salmonella enterica subsp. enterica serovar Typhimurium
Settings: Salmonella enterica
Peptide text beside a SMILES is read from it.
readout: MIC

Can you share its MIC? I mean this molecule: CC(C)[C@H](NC(=O)CNC(=O)[C@H](CC(N)=O)NC(=O)CNC(=O)[C@H](Cc1ccc(O)cc1)NC(=O)[C@H](Cc1ccc(O)cc1)NC(=O)[C@@H](N)CCCCN)C(=O)N[C@@H](Cc1c[nH]cn1)C(=O)N[C@@H](CS)C(=O)N[C@H](C(=O)N[C@@H](CCCCN)C(=O)N[C@@H](CO)C(=O)NCC(=O)N[C@@H](CS)C(=O)N[C@@H](CO)C(=O)N[C@H](C(=O)N[C@@H](CC(N)=O)C(=O)N[C@@H](Cc1c[nH]c2ccccc12)C(N)=O)C(C)C)[C@@H](C)O (H-KYYGNGVHCTKSGCSVNW-NH2)
> 128 µg/mL

Item: `CN[C@@H]1[C@H](O[C@H]2[C@H](O[C@H]3[C@H](O)[C@@H](O)[C@H](N=C(N)N)[C@@H](O)[C@@H]3N=C(N)N)O[C@@H](C)[C@]2(O)C=O)O[C@@H](CO)[C@H](O)[C@H]1O`
128 µg/mL

Next molecule up: C[C@@H](O)[C@H](NC(=O)[C@H](CS)NC(=O)[C@H](CCCCN)NC(=O)[C@H](Cc1c[nH]c2ccccc12)NC(=O)[C@H](CCCCN)NC(=O)[C@@H](N)Cc1c[nH]c2ccccc12)C(=O)N[C@@H](CCCCN)C(=O)N[C@@H](CO)C(=O)NCC(=O)N[C@@H](CS)C(=O)N[C@@H](CCCCN)C(=O)N[C@@H](Cc1c[nH]c2ccccc12)C(=O)N[C@@H](CCCCN)C(=O)N[C@@H](Cc1c[nH]c2ccccc12)C(N)=O (H-WKWKCTKSGCKWKW-NH2)
4 µg/mL

###

Task for the reader: assign each of the following molecules its reported hemolysis at 1 h, 128 ug/ml.
Assay: Hemolytic activity in human Red blood cells assessed as hemolysis at 128 ug/ml incubated for 1 hrs by absorbance based microplate reader analysis relative to control
Assay type: toxicity, cell-based, Erythrocyte
Settings: red blood cells (erythrocytes), at 128 µg/mL, read-out: Activity
Peptide text beside a SMILES is read from it.

hemolysis at 1 h, 128 ug/ml for CC(C)[C@H](N)C(=O)N[C@@H](CCCCN)C(=O)N[C@H](C(=O)N[C@@H](CCCCN)C(=O)N[C@H](C(=O)N[C@@H](CCCCN)C(=O)N[C@@H](CS)C(=O)N[C@H](C(=O)N[C@@H](CCCCN)C(=O)N[C@@H](CO)C(=O)NCC(=O)N[C@@H](CS)C(=O)N[C@@H](CCCCN)C(=O)N[C@H](C(=O)N[C@@H](CCCCN)C(=O)N[C@H](C(=O)N[C@@H](CCCCN)C(=O)N[C@H](C(N)=O)C(C)C)C(C)C)C(C)C)[C@@H](C)O)C(C)C)C(C)C (H-VKVKVKCTKSGCKVKVKV-NH2) ?
< 10%

Follow-up item: CC(C)[C@H](NC(=O)CNC(=O)[C@H](CC(N)=O)NC(=O)CNC(=O)[C@H](Cc1ccc(O)cc1)NC(=O)[C@H](Cc1ccc(O)cc1)NC(=O)[C@@H](N)CCCCN)C(=O)N[C@@H](Cc1c[nH]cn1)C(=O)N[C@@H](CS)C(=O)N[C@H](C(=O)N[C@@H](CCCCN)C(=O)N[C@@H](CO)C(=O)NCC(=O)N[C@@H](CS)C(=O)N[C@@H](CO)C(=O)N[C@H](C(=O)N[C@@H](CC(N)=O)C(=O)N[C@@H](Cc1c[nH]c2ccccc12)C(N)=O)C(C)C)[C@@H](C)O (H-KYYGNGVHCTKSGCSVNW-NH2)
< 10%

###

Test system: RAW264.7
Assay: Inhibition of LPS-stimulated TNF-alpha production in mouse RAW264.7 cells at 1 to 128 ug/ml incubated for 24 hrs by ELISA analysis
Type: functional, cell-based
Conditions: dose 1-128 µg/ml
Activity calls are given as the source filed them. The calls are words filed in the database; no cut-off is given here. Peptide text beside a SMILES is read from it.

- compound: "C[C@@H](O)[C@H](NC(=O)[C@H](CS)NC(=O)[C@H](CCCCN)NC(=O)[C@@H](N)Cc1c[nH]c2ccccc12)C(=O)N[C@@H](CCCCN)C(=O)N[C@@H](CO)C(=O)NCC(=O)N[C@@H](CS)C(=O)N[C@@H](CCCCN)C(=O)N[C@@H](Cc1c[nH]c2ccccc12)C(N)=O (H-WKCTKSGCKW-NH2)"
  inhibition: "Active"
- compound: "CC(C)C[C@H](NC(=O)[C@H](CCCCN)NC(=O)[C@H](CC(C)C)NC(=O)[C@H](CCCCN)NC(=O)[C@H](CC(C)C)NC(=O)[C@H](CCCCN)NC(=O)[C@H](CS)NC(=O)CNC(=O)[C@H](CO)NC(=O)[C@H](CCCCN)NC(=O)[C@@H](NC(=O)[C@H](CS)NC(=O)[C@H](CCCCN)NC(=O)[C@H](CC(C)C)NC(=O)[C@H](CCCCN)NC(=O)[C@H](CC(C)C)NC(=O)[C@H](CCCCN)NC(=O)[C@@H](N)CC(C)C)[C@@H](C)O)C(N)=O (H-LKLKLKCTKSGCKLKLKL-NH2)"
  inhibition: "Active"
- compound: "CC(C)[C@H](N)C(=O)N[C@@H](CCCCN)C(=O)N[C@H](C(=O)N[C@@H](CCCCN)C(=O)N[C@H](C(=O)N[C@@H](CCCCN)C(=O)N[C@@H](CS)C(=O)N[C@H](C(=O)N[C@@H](CCCCN)C(=O)N[C@@H](CO)C(=O)NCC(=O)N[C@@H](CS)C(=O)N[C@@H](CCCCN)C(=O)N[C@H](C(=O)N[C@@H](CCCCN)C(=O)N[C@H](C(=O)N[C@@H](CCCCN)C(=O)N[C@H](C(N)=O)C(C)C)C(C)C)C(C)C)[C@@H](C)O)C(C)C)C(C)C (H-VKVKVKCTKSGCKVKVKV-NH2)"
  inhibition: "Active"

###

Test system: Salmonella typhimurium
Assay: Antibacterial activity against Salmonella typhimurium DT104 in the presence 50% inactivated mouse serum by MH broth based assay
Format: functional, Salmonella enterica subsp. enterica serovar Typhimurium
Conditions: Salmonella enterica
Peptide text beside a SMILES is read from it.
readout: MIC (µg/mL)
A number alone suffices; assume µg/mL.

Item CC(C)C[C@H](NC(=O)[C@H](CCCCN)NC(=O)[C@H](CC(C)C)NC(=O)[C@H](CCCCN)NC(=O)[C@H](CS)NC(=O)CNC(=O)[C@H](CO)NC(=O)[C@H](CCCCN)NC(=O)[C@@H](NC(=O)[C@H](CS)NC(=O)[C@H](CCCCN)NC(=O)[C@H](CC(C)C)NC(=O)[C@H](CCCCN)NC(=O)[C@@H](N)CC(C)C)[C@@H](C)O)C(N)=O (H-LKLKCTKSGCKLKL-NH2) has what recorded MIC?
64

Now this one: `CC(C)C[C@H](NC(=O)[C@H](CCCNC(=N)N)NC(=O)CNC(=O)CNC(=O)[C@@H](N)CCCNC(=N)N)C(=O)N[C@H]1CSSC[C@@H](C(=O)N[C@H](C(=O)NCC(=O)N[C@@H](CCCNC(=N)N)C(N)=O)C(C)C)NC(=O)[C@H](C(C)C)NC(=O)[C@@H]2CSSC[C@H](NC(=O)[C@H](Cc3ccc(O)cc3)NC1=O)C(=O)N[C@@H](CCCNC(=N)N)C(=O)N[C@@H](CCCNC(=N)N)C(=O)N[C@@H](CCCNC(=N)N)C(=O)N[C@@H](Cc1ccccc1)C(=O)N2`
64

Okay, and C[C@@H](O)[C@H](NC(=O)[C@H](CS)NC(=O)[C@H](CCCCN)NC(=O)[C@H](Cc1c[nH]c2ccccc12)NC(=O)[C@H](CCCCN)NC(=O)[C@@H](N)Cc1c[nH]c2ccccc12)C(=O)N[C@@H](CCCCN)C(=O)N[C@@H](CO)C(=O)NCC(=O)N[C@@H](CS)C(=O)N[C@@H](CCCCN)C(=O)N[C@@H](Cc1c[nH]c2ccccc12)C(=O)N[C@@H](CCCCN)C(=O)N[C@@H](Cc1c[nH]c2ccccc12)C(N)=O (H-WKWKCTKSGCKWKW-NH2) ?
32

###

Assay: Antibacterial activity against Salmonella enterica subsp. enterica serovar Choleraesuis ATCC 13312 incubated overnight by standard microtiter dilution method
Type: functional
Peptide text beside a SMILES is read from it.
Would you mind telling me the reported MIC of each entry?
Use µg/mL as the unit, but write only the number.

I have this molecule here, CC(C)[C@H](N)C(=O)N[C@@H](CCCCN)C(=O)N[C@H](C(=O)N[C@@H](CCCCN)C(=O)N[C@@H](CS)C(=O)N[C@H](C(=O)N[C@@H](CCCCN)C(=O)N[C@@H](CO)C(=O)NCC(=O)N[C@@H](CS)C(=O)N[C@@H](CCCCN)C(=O)N[C@H](C(=O)N[C@@H](CCCCN)C(=O)N[C@H](C(N)=O)C(C)C)C(C)C)[C@@H](C)O)C(C)C (H-VKVKCTKSGCKVKV-NH2) , and I need its recorded MIC.
4

Cool, now CC(C)[C@H](NC(=O)CNC(=O)[C@H](CC(N)=O)NC(=O)CNC(=O)[C@H](Cc1ccc(O)cc1)NC(=O)[C@H](Cc1ccc(O)cc1)NC(=O)[C@@H](N)CCCCN)C(=O)N[C@@H](Cc1c[nH]cn1)C(=O)N[C@@H](CS)C(=O)N[C@H](C(=O)N[C@@H](CCCCN)C(=O)N[C@@H](CO)C(=O)NCC(=O)N[C@@H](CS)C(=O)N[C@@H](CO)C(=O)N[C@H](C(=O)N[C@@H](CC(N)=O)C(=O)N[C@@H](Cc1c[nH]c2ccccc12)C(N)=O)C(C)C)[C@@H](C)O (H-KYYGNGVHCTKSGCSVNW-NH2)
32
